tested on: A549/ATCC NSCLC; test: NCI-60 one-dose screen, 48 h (100 = growth as untreated, 0 = no growth, -100 = all killed); settings: 10 µM unless noted
The panel holds about 83,000 compounds, 20% with a hit somewhere; the sample as a whole holds those more often.
VALUE_KIND: growth (%)

{"columns": ["COMPOUND", "VALUE_KIND", "UNIT_DESCRIPTOR", "DATA_VALUE"],
 "data": [
  ["COc1ccc(/C=C2\\C(=O)Nc3ccc(Cl)cc32)cc1OCc1ccccn1", "growth", "%", 41],
  ["COc1ccc(C(=O)/C=C/c2ccccc2Br)cc1S(N)(=O)=O", "growth", "%", -81.4],
  ["O=C(COc1ccc2c(c1)CCCC(=O)N2)NCc1ccccc1", "growth", "%", 103],
  ["COc1cc2c(c(OC)c1OC)C(=O)CC(c1cccc(NC(=O)[C@@H](N)CC(C)C)c1)O2 (some centres undefined)", "growth", "%", 93.1]
]}

* * *

tested on: EKVX NSCLC; test: NCI-60 one-dose screen, 48 h (100 = growth as untreated, 0 = no growth, -100 = all killed); conditions: 10 µM unless noted
This is part of a sample that, as a whole, favours compounds with a hit. Of some 83,000 tested, about 20% had one in any assay.
Recorded growth by entry

{"columns": ["COMPOUND", "EXPERIMENTAL_TARGET", "growth, %"],
 "data": [
  ["COc1ccc(NC(=O)[C@@H](N)Cc2ccccc2)cc1C(=O)Nc1cccc(C2CC(=O)c3c(cc(OC)c(OC)c3OC)O2)c1 (stereo partly specified)", "EKVX NSCLC", 72.9],
  ["CCOc1ccc(-c2c(C#N)c(-c3ccc(Cl)cc3)nc3n[nH]c(-c4ccc(Cl)cc4)c23)cc1OC", "EKVX NSCLC", 26.6],
  ["O=C(c1ccccc1)C(c1c[nH]c2ccccc12)c1c[nH]c2ccccc12", "EKVX NSCLC", 76.5],
  ["COc1c(F)ccc(C(=O)Nc2ccc3nc(NC(=O)C4CCCN(S(=O)(=O)c5ccc(C(F)(F)F)cc5)C4)sc3c2)c1F (stereo unspecified)", "EKVX NSCLC", 103],
  ["NS(=O)(=O)c1ccc(-n2cc(-c3cccc(NC(=O)c4cc(N5CCOCC5)cc(C(F)(F)F)c4)c3)nn2)cc1", "EKVX NSCLC", 70.5],
  ["CC(=O)c1cc(C(=O)c2ccccc2)n2c1ccc1ccccc12", "EKVX NSCLC", 98.5],
  ["COc1cc(C2CC(c3cc(OC)c(OC)c(OC)c3)=NN2C(C)=O)ccc1OCc1ccc(F)cc1 (stereo unspecified)", "EKVX NSCLC", 59.4],
  ["O=C(NNc1nc2cc(C(F)(F)F)ccc2n2cccc12)c1cnccn1", "EKVX NSCLC", -83.2],
  ["O=C(NN1C(=O)/C(=C/C=C/c2ccc([N+](=O)[O-])o2)SC1=S)c1ccc(Cl)cc1", "EKVX NSCLC", -97.4],
  ["S=C(Nc1ccccc1)Nc1ccc(OCc2nc3ccccc3[nH]2)cc1", "EKVX NSCLC", 46.3],
  ["C#CCOc1cc(N(CC)CC)ccc1C(C(=O)NC(C)(C)C)N(C(=O)C1CCc2cc(F)ccc2O1)c1ccc(Br)cc1 (stereo unspecified)", "EKVX NSCLC", 55.3]
]}

* * *

test system: IGROV1 ovarian; test: NCI-60 one-dose screen, 48 h (100 = growth as untreated, 0 = no growth, -100 = all killed); settings: 10 µM unless noted
The panel holds about 83,000 compounds, 20% with a hit somewhere; the sample as a whole holds those more often.

{"columns": ["COMPOUND", "EXPERIMENTAL_TARGET", "growth, %"],
 "data": [
  ["COc1cc2c(c(OC)c1OC)C(=O)CC(c1cccc(NC(=O)c3cc([N+](=O)[O-])ccc3Cl)c1)O2 (centres undefined)", "IGROV1 ovarian", 12.5],
  ["O=C(CN1C(=O)/C(=C/c2ccccc2Cl)SC1=S)N1CCOCC1", "IGROV1 ovarian", 107],
  ["COc1ccc2c(c1)c(-c1cc3nc(-c4cn(C)c5ncc(Br)cc45)cc(N)n3n1)cn2C", "IGROV1 ovarian", -25.8],
  ["CN(C)c1ccnc(NCCCSC(c2ccccc2)(c2ccccc2)c2ccccc2)c1", "IGROV1 ovarian", 50.5]
]}

* * *

system: U251 CNS; experiment: NCI-60 one-dose screen, 48 h (100 = growth as untreated, 0 = no growth, -100 = all killed); conditions: 10 µM unless noted
This is part of a sample that, as a whole, favours compounds with a hit. Of some 83,000 tested, about 20% had one in any assay.
Decide using growth alone. Strictly below 20%: y. Equal to or above 20%: n.

{"columns": ["COMPOUND", "LABEL_VALUE"],
 "data": [
  ["C#C[C@]1(O)CC[C@H]2[C@@H]3CC=C4c5sc(-c6ccc([N+](=O)[O-])cc6)nc5CC[C@]4(C)[C@H]3CC[C@@]21C", "y"],
  ["C=C1CC[C@@H]2[C@]3(C)COC(c4ccco4)O[C@@H]3CC[C@@]2(C)[C@@H]1C/C=C1/C(=O)OCC1OC(C)=O (stereo not given in full)", "y"],
  ["CCCCc1c(Nn2cnnn2)no[n+]1[O-]", "n"],
  ["Nc1nc(-c2ccccc2)c(N=Nc2ccc(Cl)cc2[N+](=O)[O-])s1", "n"],
  ["CC(=O)/C=C/c1cccc2c1C(=O)NC(C)(c1cc3cc(Br)ccc3oc1=O)N2 (stereo not given)", "y"],
  ["CC1=C(C(=O)c2ccccc2)C(c2cccc(Cl)c2Cl)n2c(nc3ccccc32)N1 (stereo not given)", "y"],
  ["CSc1ccc(C(=O)Nc2ccc3nnn(/C(C#N)=C/c4ccccn4)c3c2)cc1", "y"],
  ["O=C(N/N=C/c1ccc(-c2ccc(O)cc2)s1)c1[nH]c2ccc(Br)cc2c1-c1ccccc1", "n"],
  ["O=C(O)Cn1c(O)c(/C=C2/C=c3cc4c(cc3=NC2=O)OCCO4)sc1=S", "n"],
  ["O=c1[nH]n(C(=S)N/N=C/c2ccccc2Cl)c(=O)c2ccccc12", "y"],
  ["CCN(CC)c1ccnc(CNCCSC(c2ccccc2)(c2ccccc2)c2ccc(OC)cc2)c1", "y"],
  ["Cn1cc(-c2cc(N)n3nc(-c4cn(C)c5ccccc45)cc3n2)c2cc(Br)ccc21", "y"],
  ["COc1cc(/C=C2\\C(=N)N=C(SCc3nc4ccccc4[nH]3)NC2=O)ccc1O", "n"],
  ["COc1ccc(C2(SCCNCc3cc(N(C)C)ccn3)c3ccccc3C=Cc3ccccc32)cc1", "y"],
  ["CCN(CC)C(=O)N/C(N)=N/c1nc2ccccc2s1", "n"],
  ["Cn1cc(-c2cc(N)n3nc(-c4c[nH]c5ccccc45)cc3n2)c2cc(Br)cnc21", "y"],
  ["COc1ccc(C(=O)/C=C/c2ccccc2Cl)cc1S(N)(=O)=O", "n"],
  ["COc1c(F)ccc(C(=O)Nc2ccc3nc(NC(=O)C4CCCN(S(=O)(=O)c5ccc(Cl)cc5)C4)sc3c2)c1F (stereo not given)", "n"],
  ["O=C(CCN1C(=O)/C(=C/c2ccc(F)cc2)SC1=S)N1CCOCC1", "n"],
  ["CC1(C)CC[C@]2(C(=O)Nc3ccccc3)CC[C@]3(C)C(=CCC4[C@@]5(C)C[C@@H](O)[C@H](O)[C@@](C)(CO)C5CC[C@]43C)C2C1 (stereo not given in full)", "n"],
  ["COc1cc2oc(-c3cccc(C(=O)Nc4ccc(Cl)cc4)c3)cc(=O)c2c(OCCNC(=O)[C@H](CO)NC(=O)OC(C)(C)C)c1OC", "n"],
  ["COc1ccc([C@H](C)Nc2nc(Cl)nc3ccccc23)cc1", "n"],
  ["CN(C)c1nc(NCCNS(=O)(=O)c2ccc(C(=O)/C=C/c3ccc(F)cc3)cc2)nc(Nc2ccc(F)cc2)n1", "y"],
  ["COc1ccc(C(=O)/C=C/c2ccc(OCc3ccc(F)cc3)c(OC)c2)cc1OC", "y"],
  ["COc1ccc(C2=NN(c3ccccc3)C(c3ccc(OC)c(OCc4ccccc4)c3)C2)cc1OC (stereo not given)", "n"]
]}

* * *

system: A498 renal; assay: NCI-60 one-dose screen, 48 h (100 = growth as untreated, 0 = no growth, -100 = all killed); settings: 10 µM unless noted
This is part of a sample that, as a whole, favours compounds with a hit. Of some 83,000 tested, about 20% had one in any assay.
Lab note: compare growth against 80%. Equal or greater, write condition met. Smaller, write condition not met.

{"columns": ["COMPOUND", "LABEL_VALUE"],
 "data": [
  ["COc1ccc(/C=N/NC(=O)Cn2nc(Cc3ccc(OC)cc3)c3onc(C)c3c2=O)cc1", "condition not met"],
  ["CNC(=O)c1cccc(NC(=O)c2ccc3c(c2)nnn3/C(C#N)=C/c2ccccn2)c1", "condition met"],
  ["CC(C)CSc1nc(NCCc2c[nH]c3ccccc23)c(C#N)c(-c2ccccc2)n1", "condition not met"],
  ["S=C(NCCc1ccccc1)Nc1ccc(OCc2nc3ccccc3[nH]2)cc1", "condition met"],
  ["CCOC(=O)COc1c(OC)c(OC)cc2oc(-c3cccc(C(=O)Nc4ccc(Cl)cc4)c3)cc(=O)c12", "condition met"],
  ["Cn1cc(-c2nc(N)nnc2-c2c[nH]c3ccc(F)cc23)c2cccnc21", "condition not met"],
  ["COc1ccc(C(=O)/C=C/c2cccnc2)cc1S(N)(=O)=O", "condition met"],
  ["COc1ccccc1C(=O)NN1C(=O)/C(=C/C2=Cc3ccccc3OC2)SC1=S", "condition met"],
  ["COc1ccc2[nH]c(=O)c(CSc3nccc(-c4ccc(OC)c(OC)c4)n3)cc2c1", "condition not met"],
  ["CCOC(=O)/C=C/c1cccc2c1C(=O)NC(C)(c1cc3cc(Br)ccc3oc1=O)N2 (stereo unspecified)", "condition not met"]
]}
